Biological target: T1, human TGFβ2 (human, UniProt P61812 303-414)
T1 construct: also called TGFβ2 homodimer
T1 sequence: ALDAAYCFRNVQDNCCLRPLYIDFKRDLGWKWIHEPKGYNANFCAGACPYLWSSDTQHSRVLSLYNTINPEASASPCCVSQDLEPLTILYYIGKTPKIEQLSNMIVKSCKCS
Assay: Biacore off-rate vs wt GC1008, 50 nM
As shown below, each of these binders has a reported kd var/kd wt value.
measured-metric: kd var/kd wt

INSERT INTO assay_data (binder, measured_metric, test_result) VALUES
  ('D56N (antibody, V domains shown, GC1008 IgG4 variant) VH: QVQLVQSGAEVKKPGSSVKVSCKASGYTFSSNVISWVRQAPGQGLEWMGGVIPIVNIANYAQRFKGRVTITADESTSTTYMELSSLRSEDTAVYYCASTLGLVLDAMDYWGQGTLVTVSS VL: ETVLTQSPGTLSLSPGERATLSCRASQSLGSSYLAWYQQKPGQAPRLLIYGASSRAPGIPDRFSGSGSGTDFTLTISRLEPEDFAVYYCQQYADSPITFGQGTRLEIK', 'kd var/kd wt', 1.4),
  ('N32D (antibody, V domains shown, GC1008 IgG4 variant) VH: QVQLVQSGAEVKKPGSSVKVSCKASGYTFSSDVISWVRQAPGQGLEWMGGVIPIVDIANYAQRFKGRVTITADESTSTTYMELSSLRSEDTAVYYCASTLGLVLDAMDYWGQGTLVTVSS VL: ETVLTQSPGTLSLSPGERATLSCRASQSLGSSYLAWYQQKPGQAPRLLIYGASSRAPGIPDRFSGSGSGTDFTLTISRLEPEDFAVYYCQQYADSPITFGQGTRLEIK', 'kd var/kd wt', 1.4),
  ('D56H (antibody, V domains shown, GC1008 IgG4 variant) VH: QVQLVQSGAEVKKPGSSVKVSCKASGYTFSSNVISWVRQAPGQGLEWMGGVIPIVHIANYAQRFKGRVTITADESTSTTYMELSSLRSEDTAVYYCASTLGLVLDAMDYWGQGTLVTVSS VL: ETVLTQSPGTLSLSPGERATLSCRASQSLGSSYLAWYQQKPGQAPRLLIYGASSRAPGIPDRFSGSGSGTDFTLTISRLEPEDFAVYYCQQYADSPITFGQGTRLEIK', 'kd var/kd wt', 1.3),
  ('D56R (antibody, V domains shown, GC1008 IgG4 variant) VH: QVQLVQSGAEVKKPGSSVKVSCKASGYTFSSNVISWVRQAPGQGLEWMGGVIPIVRIANYAQRFKGRVTITADESTSTTYMELSSLRSEDTAVYYCASTLGLVLDAMDYWGQGTLVTVSS VL: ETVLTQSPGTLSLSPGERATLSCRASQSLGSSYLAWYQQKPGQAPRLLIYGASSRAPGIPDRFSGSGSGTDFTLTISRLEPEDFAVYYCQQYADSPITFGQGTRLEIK', 'kd var/kd wt', 0.8),
  ('N32L (antibody, V domains shown, GC1008 IgG4 variant) VH: QVQLVQSGAEVKKPGSSVKVSCKASGYTFSSLVISWVRQAPGQGLEWMGGVIPIVDIANYAQRFKGRVTITADESTSTTYMELSSLRSEDTAVYYCASTLGLVLDAMDYWGQGTLVTVSS VL: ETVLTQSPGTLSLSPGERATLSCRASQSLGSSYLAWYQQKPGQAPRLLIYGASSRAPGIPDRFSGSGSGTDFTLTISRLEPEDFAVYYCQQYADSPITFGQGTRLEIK', 'kd var/kd wt', 1.3),
  ('N32P (antibody, V domains shown, GC1008 IgG4 variant) VH: QVQLVQSGAEVKKPGSSVKVSCKASGYTFSSPVISWVRQAPGQGLEWMGGVIPIVDIANYAQRFKGRVTITADESTSTTYMELSSLRSEDTAVYYCASTLGLVLDAMDYWGQGTLVTVSS VL: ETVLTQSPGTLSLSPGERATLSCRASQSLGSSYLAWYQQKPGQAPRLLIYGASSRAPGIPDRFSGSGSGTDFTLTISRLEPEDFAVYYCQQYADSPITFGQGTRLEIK', 'kd var/kd wt', 1.1),
  ('Y27M (antibody, V domains shown, GC1008 IgG4 variant) VH: QVQLVQSGAEVKKPGSSVKVSCKASGMTFSSNVISWVRQAPGQGLEWMGGVIPIVDIANYAQRFKGRVTITADESTSTTYMELSSLRSEDTAVYYCASTLGLVLDAMDYWGQGTLVTVSS VL: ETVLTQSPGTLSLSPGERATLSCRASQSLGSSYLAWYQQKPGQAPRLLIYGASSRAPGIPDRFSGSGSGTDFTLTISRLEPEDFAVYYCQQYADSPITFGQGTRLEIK', 'kd var/kd wt', 1.4),
  ('V55W (antibody, V domains shown, GC1008 IgG4 variant) VH: QVQLVQSGAEVKKPGSSVKVSCKASGYTFSSNVISWVRQAPGQGLEWMGGVIPIWDIANYAQRFKGRVTITADESTSTTYMELSSLRSEDTAVYYCASTLGLVLDAMDYWGQGTLVTVSS VL: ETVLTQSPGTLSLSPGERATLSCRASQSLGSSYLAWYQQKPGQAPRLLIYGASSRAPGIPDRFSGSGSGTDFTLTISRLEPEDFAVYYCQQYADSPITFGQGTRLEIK', 'kd var/kd wt', 1.3),
  ('Y27T (antibody, V domains shown, GC1008 IgG4 variant) VH: QVQLVQSGAEVKKPGSSVKVSCKASGTTFSSNVISWVRQAPGQGLEWMGGVIPIVDIANYAQRFKGRVTITADESTSTTYMELSSLRSEDTAVYYCASTLGLVLDAMDYWGQGTLVTVSS VL: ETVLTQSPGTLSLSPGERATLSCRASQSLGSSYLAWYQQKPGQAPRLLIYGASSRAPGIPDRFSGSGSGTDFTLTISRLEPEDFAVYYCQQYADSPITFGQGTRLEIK', 'kd var/kd wt', 1.4),
  ('Y27A (antibody, V domains shown, GC1008 IgG4 variant) VH: QVQLVQSGAEVKKPGSSVKVSCKASGATFSSNVISWVRQAPGQGLEWMGGVIPIVDIANYAQRFKGRVTITADESTSTTYMELSSLRSEDTAVYYCASTLGLVLDAMDYWGQGTLVTVSS VL: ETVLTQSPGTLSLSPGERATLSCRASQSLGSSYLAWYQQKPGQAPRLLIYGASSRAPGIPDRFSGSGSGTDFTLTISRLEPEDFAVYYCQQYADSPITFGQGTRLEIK', 'kd var/kd wt', 1.4);
